Provide the recorded pIC50 for the entries that follow.
target: HDAC6 (Homo sapiens, UniProt Q9UBN7)
Construct: Full length human recombinant HDAC6 protein was expressed in baculoviral system
Sequence (Q9UBN7 whole entry): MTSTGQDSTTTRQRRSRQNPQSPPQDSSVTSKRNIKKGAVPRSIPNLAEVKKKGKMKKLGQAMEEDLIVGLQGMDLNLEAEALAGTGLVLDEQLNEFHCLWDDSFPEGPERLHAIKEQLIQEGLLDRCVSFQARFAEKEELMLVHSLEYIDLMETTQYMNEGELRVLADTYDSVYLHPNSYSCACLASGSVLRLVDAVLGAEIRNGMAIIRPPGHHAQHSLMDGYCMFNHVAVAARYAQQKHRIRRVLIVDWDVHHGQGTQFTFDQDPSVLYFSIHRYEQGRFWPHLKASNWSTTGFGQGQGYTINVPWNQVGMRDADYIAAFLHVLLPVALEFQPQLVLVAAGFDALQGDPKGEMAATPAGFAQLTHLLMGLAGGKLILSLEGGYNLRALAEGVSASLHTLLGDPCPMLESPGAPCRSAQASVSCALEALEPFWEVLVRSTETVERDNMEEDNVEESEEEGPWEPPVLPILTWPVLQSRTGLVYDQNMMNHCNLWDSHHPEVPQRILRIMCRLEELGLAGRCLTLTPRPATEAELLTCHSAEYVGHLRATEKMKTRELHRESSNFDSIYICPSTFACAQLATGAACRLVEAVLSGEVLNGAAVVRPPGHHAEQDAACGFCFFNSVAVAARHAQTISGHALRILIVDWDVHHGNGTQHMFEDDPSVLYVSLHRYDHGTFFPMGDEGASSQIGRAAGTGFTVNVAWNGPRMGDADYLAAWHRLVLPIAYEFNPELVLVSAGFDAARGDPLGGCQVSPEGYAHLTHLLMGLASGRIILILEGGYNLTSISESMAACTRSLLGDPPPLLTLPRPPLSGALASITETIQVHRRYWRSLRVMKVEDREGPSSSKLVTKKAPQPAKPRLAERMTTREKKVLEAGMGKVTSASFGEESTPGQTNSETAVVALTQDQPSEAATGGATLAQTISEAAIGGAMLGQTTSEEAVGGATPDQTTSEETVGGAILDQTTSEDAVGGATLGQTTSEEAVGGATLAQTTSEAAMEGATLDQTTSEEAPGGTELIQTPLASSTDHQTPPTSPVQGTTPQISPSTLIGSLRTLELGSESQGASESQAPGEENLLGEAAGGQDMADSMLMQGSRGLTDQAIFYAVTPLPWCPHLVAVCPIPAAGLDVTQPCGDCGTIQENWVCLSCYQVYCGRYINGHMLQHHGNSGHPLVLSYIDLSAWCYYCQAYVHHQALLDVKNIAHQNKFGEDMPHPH
method: In vitro Histone Deacetylase Assay (enzymatic HDAC6 electrophoretic mobility shift assay)
condition summary: full length human recombinant HDAC6, 1 nM enzyme, 2 μM peptide substrate RHKK(Ac)-NH2, 25° C.; read-out: HDAC6 activity range
pIC50: −log10 of the molar value.

query: # lookup: pIC50 of O=C(NO)c1ccc2c(c1)CC[C@]1(CCN(Cc3ccccc3OC(F)F)C1=O)C2
result: ≥ 7.00

query: Another molecule to look at: O=C(NO)c1ccc2c(c1)CC[C@]1(CCN(Cc3cnc(O)s3)C1=O)C2
result: ≥ 7.00

query: Another molecule to look at: Cn1cc(N2CC[C@@]3(CCc4cc(C(=O)NO)ccc4C3)C2=O)cn1
result: ≥ 7.00

query: Another molecule to look at: O=C(NO)c1ccc2c(c1)CC[C@@]1(CCN(c3ccc(F)c(F)c3)C1=O)C2
result: ≥ 7.00

query: Another molecule to look at: CN(C)c1ccc(N2CC[C@]3(CCc4cc(C(=O)NO)ccc4C3)C2=O)cc1
result: ≥ 7.00

query: Another molecule to look at: CN(C)CCCN1CCC2(CCc3cc(C(=O)NO)ccc3C2)C1=O (stereo not shown)
result: 6.30 to 7.00

query: Another molecule to look at: CN1CC2(CCc3cc(C(=O)NO)ccc3C2)CC1=O (single isomer, unassigned)
result: ≥ 7.00

query: Another molecule to look at: O=C(NO)c1ccc2c(c1)CCC1(CCN(Cc3ccccc3)C1=O)S2(=O)=O (stereo not shown)
result: 6.30 to 7.00

query: Another molecule to look at: O=C(NO)c1ccc2c(c1)CCC1(CCN(Cc3ccncc3)C1=O)O2 (stereo not shown)
result: < 6.30

query: Another molecule to look at: O=C(NO)c1ccc2c(c1)CC[C@]1(CCN(Cc3ccccn3)C1=O)C2
result: ≥ 7.00

query: Another molecule to look at: O=C(NO)c1ccc2c(c1)CC[C@]1(CCN(c3cc(F)ccc3F)C1=O)C2
result: ≥ 7.00

query: Another molecule to look at: CCN1CC2(CCc3cc(C(=O)NO)ccc3C2)CC1=O (single isomer, unassigned) [Compound I-211]
result: ≥ 7.00

query: Another molecule to look at: O=C(NO)c1ccc2c(c1)CC[C@@]1(CCN(Cc3ccccc3OC(F)(F)F)C1=O)C2
result: 6.30 to 7.00

query: Another molecule to look at: CN(C)c1ccc(N2CC[C@@]3(CCc4cc(C(=O)NO)ccc4C3)C2=O)cn1
result: 6.30 to 7.00

query: Another molecule to look at: O=C(NO)c1ccc2c(c1)CC[C@]1(CCCN(C3CCCC3)C1=O)C2
result: ≥ 7.00

query: Another molecule to look at: O=C(NO)c1ccc2c(c1)CCC1(CC(=O)N(C3CC3)C1)C2 (single isomer, unassigned) [Compound I-209]
result: ≥ 7.00
